- Test system: P12-ICHIKAWA (T-Lymphoblastic Leukemia)
- assay_info: combination Emax (second highest fraction inhibited in the dose matrix, 72 h); higher = more inhibition; extreme values may be limits of the assay
assay_metric: combination Emax
Give bare numbers.

{"compound": "CS(=O)(=O)CCNCc1ccc(-c2ccc3ncnc(Nc4ccc(OCc5cccc(F)c5)c(Cl)c4)c3c2)o1 [Lapatinib] + C[C@@H](Oc1cc(-c2cnn(C3CCNCC3)c2)cnc1N)c1c(Cl)ccc(F)c1Cl [Crizotinib] (first compound max 10 µM, 7x7, partner max 10 µM)", "assay_metric": "combination Emax", "reported": 0.975}
{"compound": "CC(=O)c1c(C)c2cnc(Nc3ccc(N4CCNCC4)cn3)nc2n(C2CCCC2)c1=O [Palbociclib] + CN(CC[C@H](CSC1=CC=CC=C1)NC2=C(C=C(C=C2)S(=O)(=O)NC(=O)C3=CC=C(C=C3)N4CCC(CC4)[C@H](C5=CC=CC=C5C6=CC=C(C=C6)Cl)O)S(=O)(=O)C(F)(F)F)CCO [AZD4320] (first compound max 10 µM, 7x7, partner max 1 µM)", "assay_metric": "combination Emax", "reported": 1}

Consider the additional compound presented here.
Documented combination Emax of C[C@@H](c1ccc2nccn2c1)n1nnc2ncc(-c3cnn(C)c3)nc21 [Savolitinib] + CN(CC[C@H](CSC1=CC=CC=C1)NC2=C(C=C(C=C2)S(=O)(=O)NC(=O)C3=CC=C(C=C3)N4CCC(CC4)[C@H](C5=CC=CC=C5C6=CC=C(C=C6)Cl)O)S(=O)(=O)C(F)(F)F)CCO [AZD4320] (first compound max 1 µM, 7x7, partner max 1 µM) : 1

---

- System: KYSE-180 (Esophageal Squamous Cell Carcinoma)
- assay_info: combination Emax (second highest fraction inhibited in the dose matrix, 72 h); higher = more inhibition; extreme values may be limits of the assay
So basically: combination Emax at 0.9 or higher? That is criterion met. Lower than 0.9? That is criterion not met.

Study these solved cases before continuing.
{"compound": "CC1(C)CCC(CN2CCN(c3ccc(C(=O)NS(=O)(=O)c4ccc(NCC5CCOCC5)c([N+](=O)[O-])c4)c(Oc4cnc5[nH]ccc5c4)c3)CC2)=C(c2ccc(Cl)cc2)C1 [Venetoclax] + CCN(CCO)CCCOc1ccc2c(Nc3cc(CC(=O)Nc4cccc(F)c4)[nH]n3)ncnc2c1 [AZD2811] (first compound max 1 µM, 7x7, partner max 1 µM)", "class_assignment": "criterion not met"}
{"compound": "CS(=O)(=O)CCNCc1ccc(-c2ccc3ncnc(Nc4ccc(OCc5cccc(F)c5)c(Cl)c4)c3c2)o1 [Lapatinib] + C[C@@H](Oc1cc(-c2cnn(C3CCNCC3)c2)cnc1N)c1c(Cl)ccc(F)c1Cl [Crizotinib] (first compound max 10 µM, 7x7, partner max 10 µM)", "class_assignment": "criterion met"}
{"compound": "CN(CCO)CC[C@H](CSc1ccccc1)Nc1ccc(S(=O)(=O)NC(=O)c2ccc(N3CCC([C@@H](O)c4ccccc4-c4ccc(Cl)cc4)CC3)cc2)cc1S(=O)(=O)C(F)(F)F [AZD4320] + C[C@@H](Nc1cc(F)cc(F)c1)c1cc(C(=O)N(C)C)cc2c(=O)cc(N3CCOCC3)oc12 [AZD8186] (first compound max 1 µM, 7x7, partner max 3 µM)", "class_assignment": "criterion not met"}

Query: Form field: combination Emax at least 0.9? Entry: CC1(C)CCC(CN2CCN(c3ccc(C(=O)NS(=O)(=O)c4ccc(NCC5CCOCC5)c([N+](=O)[O-])c4)c(Oc4cnc5[nH]ccc5c4)c3)CC2)=C(c2ccc(Cl)cc2)C1 [Venetoclax] + C1CN(CCC1(C(=O)N[C@@H](CCO)C2=CC=C(C=C2)Cl)N)C3=NC=NC4=C3C=CN4 [Capivasertib] (first compound max 1 µM, 7x7, partner max 3 µM)
Reply: criterion not met

Query: Form field: combination Emax at least 0.9? Entry: COc1cccc(OCCCN)c1-c1cc(Nc2cnc(C#N)cn2)n[nH]1 [Prexasertib] + CCc1c2c(nc3ccc(O)cc13)-c1cc3c(c(=O)n1C2)COC(=O)[C@]3(O)CC [SN-38] (first compound max 1 µM, 7x7, partner max 0.3 µM)
Reply: criterion met

---

- Tested on: L-540 (Hodgkin's Lymphoma);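 also: after 72 h of two-drug dosing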
- assay_info: Bliss excess, mean over the matrix (fraction); higher = more synergy
assay_metric: Bliss excess
Give bare numbers.

Look over these answered cases.
{"compound": "Cc1nc(-c2cn3c(n2)-c2ccc(-c4cnn(C(C)(C)C(N)=O)c4)cc2OCC3)n(C(C)C)n1 [Taselisib] + O=C(Nc1ccc2[nH]nc(-c3ccncc3)c2c1)[C@@H]1CCN(CC(=O)N2CCN(c3ccc(-c4ncccn4)cc3)CC2)C1 [SCH772984] (first compound max 10 µM, 7x7, partner max 5 µM)", "Bliss excess": 0.0023}
{"compound": "O=C(c1cc(Cc2n[nH]c(=O)c3ccccc23)ccc1F)N1CCN(C(=O)C2CC2)CC1 [Olaparib] + COc1nnc2ccc(N3CCC(c4ccc(OCCN5CCN(C)C(=O)[C@H]5C)cc4)CC3)nn12 [AZD5153] (first compound max 10 µM, 7x7, partner max 1 µM)", "Bliss excess": -0.0841}
{"compound": "C=CCn1c(=O)c2cnc(Nc3ccc(N4CCN(C)CC4)cc3)nc2n1-c1cccc(C(C)(C)O)n1 [AZD1775] + C[C@@H]1COCCN1C2=NC(=NC(=C2)C3(CC3)[S@](=N)(=O)C)C4=C5C=CNC5=NC=C4 [AZD6738] (first compound max 1 µM, partner max 10 µM)", "Bliss excess": -0.0091}
{"compound": "Cc1c2c(nn1C)CSCc1cc(n(C)n1)CSc1cc(c3ccccc3c1)OCCCc1c(C(=O)O)n(C)c3c-2c(Cl)ccc13 [AZD5991] + C[C@@H]1COCCN1C2=NC(=NC(=C2)C3(CC3)[S@](=N)(=O)C)C4=C5C=CNC5=NC=C4 [AZD6738] (first compound max 1 µM, 7x7, partner max 10 µM)", "Bliss excess": 0.0278}
{"compound": "CN(CCO)CC[C@H](CSc1ccccc1)Nc1ccc(S(=O)(=O)NC(=O)c2ccc(N3CCC([C@@H](O)c4ccccc4-c4ccc(Cl)cc4)CC3)cc2)cc1S(=O)(=O)C(F)(F)F [AZD4320] + C=CCn1c(=O)c2cnc(Nc3ccc(N4CCN(C)CC4)cc3)nc2n1-c1cccc(C(C)(C)O)n1 [AZD1775] (first compound max 1 µM, partner max 1 µM)", "Bliss excess": 0.0594}
{"compound": "Cc1cc2ncnn2cc1Nc1ncc2c(n1)n(C1CCOCC1)c(=O)n2C [AZD7648] + C[C@@H]1COCCN1C2=NC(=NC(=C2)C3(CC3)[S@](=N)(=O)C)C4=C5C=CNC5=NC=C4 [AZD6738] (first compound max 10 µM, 7x7, partner max 10 µM)", "Bliss excess": -0.0031}

// for each compound in input: emit Bliss excess
1. CN(CCO)CC[C@H](CSc1ccccc1)Nc1ccc(S(=O)(=O)NC(=O)c2ccc(N3CCC([C@@H](O)c4ccccc4-c4ccc(Cl)cc4)CC3)cc2)cc1S(=O)(=O)C(F)(F)F [AZD4320] + CS(=O)(=O)CCNCc1ccc(-c2ccc3ncnc(Nc4ccc(OCc5cccc(F)c5)c(Cl)c4)c3c2)o1 [Lapatinib] (first compound max 1 µM, 7x7, partner max 10 µM)
2. CN(CCO)CC[C@H](CSc1ccccc1)Nc1ccc(S(=O)(=O)NC(=O)c2ccc(N3CCC([C@@H](O)c4ccccc4-c4ccc(Cl)cc4)CC3)cc2)cc1S(=O)(=O)C(F)(F)F [AZD4320] + CCN(CCO)CCCOc1ccc2c(Nc3cc(CC(=O)Nc4cccc(F)c4)[nH]n3)ncnc2c1 [AZD2811] (first compound max 1 µM, 7x7, partner max 1 µM)
3. N#Cc1cnc(Nc2cc(NC[C@H]3CNCCO3)c(C(F)(F)F)cn2)cn1 [SRA737] + Nc1ccn([C@@H]2O[C@H](CO)[C@@H](O)C2(F)F)c(=O)n1 [Gemcitabine] (first compound max 10 µM, 7x7, partner max 0.3 µM)
4. Cc1c2c(nn1C)CSCc1cc(n(C)n1)CSc1cc(c3ccccc3c1)OCCCc1c(C(=O)O)n(C)c3c-2c(Cl)ccc13 [AZD5991] + CCN(CCO)CCCOc1ccc2c(Nc3cc(CC(=O)Nc4cccc(F)c4)[nH]n3)ncnc2c1 [AZD2811] (first compound max 1 µM, 7x7, partner max 1 µM)
5. CS(=O)(=O)CCNCc1ccc(-c2ccc3ncnc(Nc4ccc(OCc5cccc(F)c5)c(Cl)c4)c3c2)o1 [Lapatinib] + NC1(c2ccc(-c3nc4ccn5c(=O)[nH]nc5c4cc3-c3ccccc3)cc2)CCC1 [MK-2206] (first compound max 10 µM, 7x7, partner max 10 µM)
6. C[C@@H]1COCCN1c1cc(C2([S@](C)(=N)=O)CC2)nc(-c2ccnc3[nH]ccc23)n1 [AZD6738] + Nc1ccn([C@@H]2O[C@H](CO)[C@@H](O)C2(F)F)c(=O)n1 [Gemcitabine] (first compound max 10 µM, 7x7, partner max 0.3 µM)
7. N#Cc1cnc(Nc2cc(NC[C@H]3CNCCO3)c(C(F)(F)F)cn2)cn1 [SRA737] + O=c1[nH]cc(F)c(=O)[nH]1 [5-Fluorouracil] (first compound max 10 µM, 7x7, partner max 20 µM)

Reply:
0.137
0.0985
0.0222
0.0788
-0.0209
-0.0107
-0.0581
